- Test system: H2O2-induced PC12 cells
- ASSAY EXPLANATION: Neuroprotection against H2O2-induced PC12 cell injury (MTT)
- Assay type: cell-based
- MEASUREMENT CONDITIONS: compound 10 μM, H2O2 250 μM, mean ± SEM
EXPERIMENTAL ENDPOINT: H2O2-Induced PC12 Cell Viability (% of Control)

Prompt line: For the compound shown here, O=C1c2ccccc2-n2c1nc1ccc(NS(=O)(=O)c3ccccc3C(F)(F)F)cc1c2=O , give the reported H2O2-Induced PC12 Cell Viability (% of Control).
Response line: 42.56 ± 2.1 % of Control

Prompt line: Try the compound COc1ccc(S(=O)(=O)Nc2ccc3nc4n(c(=O)c3c2)-c2ccccc2C4=O)c(OC)c1
Response line: 34.61 ± 3.7 % of Control

Prompt line: Then this compound: O=C1c2cc(NS(=O)(=O)c3ccccc3)ccc2-n2c1nc1ccccc1c2=O
Response line: 43.29 ± 3.1 % of Control

Prompt line: Same again, this time with O=C1c2cc(NS(=O)(=O)c3cccc(F)c3)ccc2-n2c1nc1ccccc1c2=O
Response line: 59.88 ± 0.9 % of Control

Prompt line: Param item: COc1ccc(S(=O)(=O)Nc2ccc3c(c2)C(=O)c2nc4ccccc4c(=O)n2-3)c(OC)c1
Response line: 36.35 ± 1.6 % of Control

Prompt line: Next up: O=C1c2cc(NS(=O)(=O)c3ccccc3F)ccc2-n2c1nc1ccccc1c2=O
Response line: 61.66 ± 1.3 % of Control

Prompt line: Ok, now O=C1c2ccccc2-n2c1nc1ccc(NS(=O)(=O)c3ccc(F)cc3)cc1c2=O
Response line: 34.24 ± 3.5 % of Control

Prompt line: Repeat with Cc1ccc(S(=O)(=O)Nc2ccc3c(c2)C(=O)c2nc4ccccc4c(=O)n2-3)cc1
Response line: 47.36 ± 1.7 % of Control

Prompt line: Another compound to check: O=C1c2cc(NS(=O)(=O)c3ccccc3OC(F)(F)F)ccc2-n2c1nc1ccccc1c2=O
Response line: 46.53 ± 1.2 % of Control

----------
- Tested on: PC12 cells
- ASSAY EXPLANATION: Cytotoxicity in PC12 cells (MTT)
- Type: cell-based
- MEASUREMENT CONDITIONS: compound 50 μM
EXPERIMENTAL ENDPOINT: Cell Viability (% of Control)

[[record]]
structure_string = "O=C1c2ccccc2-n2c1nc1ccc(NS(=O)(=O)c3ccccc3F)cc1c2=O"
experimental_endpoint = "Cell Viability (% of Control)"
result_value = "98.3 ± 2.7 % of Control"

[[record]]
structure_string = "O=C1c2cc(NS(=O)(=O)c3ccccc3)ccc2-n2c1nc1ccccc1c2=O"
experimental_endpoint = "Cell Viability (% of Control)"
result_value = "98.3 ± 3.0 % of Control"

[[record]]
structure_string = "COc1ccc(S(=O)(=O)Nc2ccc3nc4n(c(=O)c3c2)-c2ccccc2C4=O)cc1OC"
experimental_endpoint = "Cell Viability (% of Control)"
result_value = "99.5 ± 2.7 % of Control"

[[record]]
structure_string = "O=C1c2cc(NS(=O)(=O)c3ccc(OC(F)(F)F)cc3)ccc2-n2c1nc1ccccc1c2=O"
experimental_endpoint = "Cell Viability (% of Control)"
result_value = "99.3 ± 2.1 % of Control"

[[record]]
structure_string = "COc1ccc(S(=O)(=O)Nc2ccc3nc4n(c(=O)c3c2)-c2ccccc2C4=O)c(OC)c1"
experimental_endpoint = "Cell Viability (% of Control)"
result_value = "98.7 ± 1.3 % of Control"

[[record]]
structure_string = "O=C1c2ccccc2-n2c1nc1ccc(NS(=O)(=O)c3ccccc3OC(F)(F)F)cc1c2=O"
experimental_endpoint = "Cell Viability (% of Control)"
result_value = "98.3 ± 2.7 % of Control"

[[record]]
structure_string = "O=C1c2cc(NS(=O)(=O)c3ccc(F)cc3)ccc2-n2c1nc1ccccc1c2=O"
experimental_endpoint = "Cell Viability (% of Control)"
result_value = "98.7 ± 1.1 % of Control"

[[record]]
structure_string = "COc1ccc(S(=O)(=O)Nc2ccc3c(c2)C(=O)c2nc4ccccc4c(=O)n2-3)c(OC)c1"
experimental_endpoint = "Cell Viability (% of Control)"
result_value = "99.8 ± 2.7 % of Control"


Continue with the compound presented below.
Prompt line: Query (compound): O=C1c2ccccc2-n2c1nc1ccc(NS(=O)(=O)c3ccc(F)cc3)cc1c2=O ; field requested: Cell Viability (% of Control)
Response line: 98.3 ± 3.0 % of Control

Source of measurements: paper PMC10610214
